# System: SF-539 CNS
# Test Protocol: NCI tumour cell line growth inhibition, 48 h; in the data active = GI50 below about 0.43 µM; inactive = the rest
Classes used: 1 (active), 0 (inactive)

{"Molecule": "CN1CC=C(c2cc(NC(=O)Nc3ccc(Oc4ccnc(NC(=O)C5CC5)c4)c(F)c3)cc(C(F)(F)F)c2)CC1", "Category Label": 0}
{"Molecule": "CCCCCCC1N=C(N)N=C(N)N1c1cccc(Cl)c1 (stereo unspecified)", "Category Label": 1}
{"Molecule": "CCN1CCC(CC(=O)Nc2n[nH]c3nnc(-c4cccc(F)c4F)cc23)CC1", "Category Label": 0}
{"Molecule": "COc1cc(-c2cc3ncccc3c3nc(OCCN(C)C)c4cccnc4c23)cc(OC)c1OC", "Category Label": 0}
{"Molecule": "C[C@@H](N)COc1ccc(-c2cnc3ccc(N[C@H](C)c4cccc(F)c4)nn23)cc1", "Category Label": 0}
{"Molecule": "CC1(C)CC(=O)C=C(/C=C/Sc2c(Cl)c(Cl)nc(Cl)c2Cl)C1", "Category Label": 0}
{"Molecule": "CNS(=O)(=O)OCC1OC(n2cnc3cncnc32)C(O)C1O (stereo unspecified)", "Category Label": 0}
{"Molecule": "Oc1cc(N2CC2)c(O)cc1N1CC1", "Category Label": 1}
{"Molecule": "CCC(C)(C)c1cc(O)c(C(C)(C)CC)cc1O", "Category Label": 0}
{"Molecule": "CN1CCN(Cc2ccc(NC(=O)c3cncc(C#Cc4c(N)ncc5ccc(C#N)cc45)c3)cc2C(F)(F)F)CC1", "Category Label": 0}
{"Molecule": "COc1ccc(-c2cc(/C=C3\\C(=O)Nc4cc(Cl)ccc43)[nH]n2)cc1", "Category Label": 0}
